The reported numbers originate from patent US12692287B2.

# method-notes: Hygroscopicity: solids placed openly at 25° C. and 65% RH, water content by KF
# Type: physicochemical
# conditions: 0 day
observation-type: Water content of NMNH calcium salt crystalline form (KF)

Recorded results for 4 molecules are shown here.
NC(=O)C1=CN([C@@H]2O[C@H](COP(=O)(O)O)[C@@H](O)[C@H]2O)C=CC1.[Ca+2] [NMNH calcium salt Crystalline Form C]: 9.5%
NC(=O)C1=CN([C@@H]2O[C@H](COP(=O)(O)O)[C@@H](O)[C@H]2O)C=CC1.[Ca+2] [NMNH calcium salt Crystalline Form D]: 18.4%
NC(=O)C1=CN([C@@H]2O[C@H](COP(=O)(O)O)[C@@H](O)[C@H]2O)C=CC1.[Ca+2] [NMNH calcium salt Crystalline Form E]: 20.3%
NC(=O)C1=CN([C@@H]2O[C@H](COP(=O)(O)O)[C@@H](O)[C@H]2O)C=CC1.[Ca+2] [NMNH calcium salt Crystalline Form B]: 13.3%

Next molecule, Water content of NMNH calcium salt crystalline form (KF) to be filled in.
Supply measured Water content of NMNH calcium salt crystalline form (KF) of NC(=O)C1=CN([C@@H]2O[C@H](COP(=O)(O)O)[C@@H](O)[C@H]2O)C=CC1.[Ca+2] [NMNH calcium salt Crystalline Form A] in your reply. 9.2%

====

# method-notes: Stability: solids placed openly in a stability test chamber at 25° C. and 65% RH, purity by HPLC
# Format: physicochemical
# conditions: 5 days, calcium salt
Parameter: Purity (HPLC, area %). Scope: all listed entries.
# output: bare number, implied unit area %

Supply measured Purity (HPLC, area %) of NC(=O)C1=CN([C@@H]2O[C@H](COP(=O)(O)O)[C@@H](O)[C@H]2O)C=CC1.[Ca+2] [NMNH calcium salt Crystalline Form D] in your reply. 99.64

Supply measured Purity (HPLC, area %) of NC(=O)C1=CN([C@@H]2O[C@H](COP(=O)(O)O)[C@@H](O)[C@H]2O)C=CC1.[Ca+2] [NMNH calcium salt Crystalline Form E] in your reply. 99.60

Supply measured Purity (HPLC, area %) of NC(=O)C1=CN([C@@H]2O[C@H](COP(=O)(O)O)[C@@H](O)[C@H]2O)C=CC1.[Ca+2] [NMNH calcium salt Crystalline Form A] in your reply. 99.82

Supply measured Purity (HPLC, area %) of NC(=O)C1=CN([C@@H]2O[C@H](COP(=O)(O)O)[C@@H](O)[C@H]2O)C=CC1.[Ca+2] [NMNH calcium salt Crystalline Form B] in your reply. 99.75

Supply measured Purity (HPLC, area %) of NC(=O)C1=CN([C@@H]2O[C@H](COP(=O)(O)O)[C@@H](O)[C@H]2O)C=CC1.[Ca+2] [NMNH calcium salt Crystalline Form C] in your reply. 99.78

====

# method-notes: Stability: solids placed openly in a stability test chamber at 25° C. and 65% RH, purity by HPLC
# Format: physicochemical
# conditions: 0 day, calcium salt
Parameter: Purity (HPLC, area %). Scope: all listed entries.
# output: bare number, implied unit area %

Recorded results for 4 compounds are shown here.
NC(=O)C1=CN([C@@H]2O[C@H](COP(=O)(O)O)[C@@H](O)[C@H]2O)C=CC1.[Ca+2] [NMNH calcium salt Crystalline Form A]: 99.83
NC(=O)C1=CN([C@@H]2O[C@H](COP(=O)(O)O)[C@@H](O)[C@H]2O)C=CC1.[Ca+2] [NMNH calcium salt Crystalline Form E]: 99.60
NC(=O)C1=CN([C@@H]2O[C@H](COP(=O)(O)O)[C@@H](O)[C@H]2O)C=CC1.[Ca+2] [NMNH calcium salt Crystalline Form D]: 99.64
NC(=O)C1=CN([C@@H]2O[C@H](COP(=O)(O)O)[C@@H](O)[C@H]2O)C=CC1.[Ca+2] [NMNH calcium salt Crystalline Form C]: 99.78

Supply measured Purity (HPLC, area %) of NC(=O)C1=CN([C@@H]2O[C@H](COP(=O)(O)O)[C@@H](O)[C@H]2O)C=CC1.[Ca+2] [NMNH calcium salt Crystalline Form B] in your reply. 99.75
